Hello, the source for this data is patent US9540343B2, in case you need it.

For each of the molecules below, state its CC50 at 5 days.
# ASSAY PROTOCOL: in vitro
# CONDITION LABEL: human, uninfected MT-4 cells, CC50 (nM), same protocol as Test A, CellTiter-Glo
Write it as a number; the unit nM goes unstated.

Value of CC50 at 5 days reported for the molecule O=C(Cn1nc(C(F)F)c2c1C(F)(F)C1CC21)N[C@@H](Cc1cc(F)cc(F)c1)c1ncccc1-c1cccc2cnccc12 (some centres unmarked) is 13700

Value of CC50 at 5 days reported for the molecule CC(C)Oc1ccc(-c2cccnc2[C@H](Cc2cc(F)cc(F)c2)NC(=O)Cn2nc(C(F)F)c3c2C(F)(F)C2CC32)cc1 (some centres unmarked) is 20400

Value of CC50 at 5 days reported for the molecule O=C(Cn1nc(C(F)F)c2c1C(F)(F)CCC2(F)F)N[C@@H](Cc1cc(F)cc(F)c1)c1ncccc1-c1ccc2cc[nH]c(=O)c2c1 [Example 559D] is 23100

Value of CC50 at 5 days reported for the molecule Cc1ccc2ccn(CC(=O)N[C@@H](Cc3cc(F)cc(F)c3)c3ncccc3-c3ccc(F)c(C(N)=O)c3)c2c1 is 15900

Value of CC50 at 5 days reported for the molecule O=C(Cc1c[nH]c2ccc(F)cc12)N[C@@H](Cc1cc(F)cc(F)c1)c1ncccc1-c1ccc(S(=O)(=O)N2CCOCC2)cc1 is 19300

Value of CC50 at 5 days reported for the molecule NC(=O)c1cc(-c2cccnc2[C@H](Cc2cc(F)cc(F)c2)NC(=O)Cn2nc(C(F)(F)F)cc2C2CCCC2)ccc1F [Example 168B] is 11100

Value of CC50 at 5 days reported for the molecule NC(=O)c1cc(-c2cccnc2[C@H](Cc2cc(F)cc(F)c2)NC(=O)Cc2cccc3ccccc23)ccc1F is 22200

Value of CC50 at 5 days reported for the molecule Cc1[nH]c2ccc(F)cc2c1CC(=O)N[C@@H](Cc1cc(F)cc(F)c1)c1ncccc1-c1cccc(C(N)=O)c1 [Example 517E] is 19100

Value of CC50 at 5 days reported for the molecule Cc1ccccc1-c1cccnc1C(Cc1cc(F)cc(F)c1)NC(=O)Cn1nc(C(F)(F)F)c2c1CCCC2 (centres unmarked) is 10300

Value of CC50 at 5 days reported for the molecule NC(=O)c1cc(-c2cccnc2[C@H](Cc2cc(F)cc(F)c2)NC(=O)Cn2nc(C(F)(F)F)c3c2C(=O)C2CC32)ccc1F (some centres unmarked) [Example 561B] is 29000

Value of CC50 at 5 days reported for the molecule Cc1ccccc1-c1cccnc1C(Cc1cc(F)cc(F)c1)NC(=O)Cc1c[nH]c2ccc(O)cc12 (centres unmarked) is 21900

Value of CC50 at 5 days reported for the molecule Cc1cc2ncn(CC(=O)N[C@@H](Cc3cc(F)cc(F)c3)c3ncccc3-c3cccc(C(N)=O)c3)c2cc1C is 8530

Value of CC50 at 5 days reported for the molecule O=C(Cc1c[nH]c2ccc(F)cc12)N[C@@H](Cc1cc(F)cc(F)c1)c1ncccc1-c1cccc(OC(F)(F)F)c1 is 6460

Value of CC50 at 5 days reported for the molecule CC(C)(C)OC(=O)N1[C@@H](c2ccccc2)CC[C@H]1C(=O)N[C@@H](Cc1cc(F)cc(F)c1)c1ncccc1-c1ccc(F)c(C(N)=O)c1 is 14000

Value of CC50 at 5 days reported for the molecule O=C(Cc1c[nH]c2ccc(C(F)(F)F)cc12)N[C@@H](Cc1cc(F)cc(F)c1)c1ncccc1-c1ccc(Cl)cc1 is 10700

Value of CC50 at 5 days reported for the molecule Cc1ccccc1-c1ccnc(C(Cc2ccccc2)NC(=O)Cn2nc(C(F)(F)F)c3c2CCCC3)n1 (centres unmarked) is 13000

Value of CC50 at 5 days reported for the molecule NC(=O)c1cc(-c2cccnc2[C@H](Cc2cc(F)cc(F)c2)NC(=O)Cc2c[nH]c3ccc(F)cc23)ccn1 is 20500

Value of CC50 at 5 days reported for the molecule CCc1c(-c2ccccc2)c(C(F)(F)F)nn1CC(=O)N[C@@H](Cc1cc(F)cc(F)c1)c1ncccc1-c1ccc(F)c(C(N)=O)c1 is 11500
